B1: glmS ribozyme (parent)
chain: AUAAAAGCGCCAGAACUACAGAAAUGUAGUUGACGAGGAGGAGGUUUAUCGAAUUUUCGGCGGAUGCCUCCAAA

Variants of: B1
experiment: self-cleavage kobs at 2500 uM GlcN6P; higher = faster cleavage; RNA array
condition-description: with glucosamine-6-phosphate
This sample holds only a part of the variants without activity.
attribute-measured: self-cleavage kobs at 2500 uM GlcN6P

{"columns": ["sequence-change", "result"],
 "data": [
  ["G7U G41C A52G", "< 1e-05 s⁻¹"],
  ["C8A A15G G44A C61U C71A", "< 1e-05 s⁻¹"],
  ["C8U G37C A39G", "< 1e-05 s⁻¹"],
  ["U55A G59U", "< 1e-05 s⁻¹"],
  ["U46A G51A", "< 1e-05 s⁻¹"],
  ["U45G G63U", "< 1e-05 s⁻¹"],
  ["G40C G60U C67G", "< 1e-05 s⁻¹"],
  ["G40C G63A", "< 1e-05 s⁻¹"],
  ["G41U C61G", "< 1e-05 s⁻¹"],
  ["C16G G35C A39G G60U C61U C68U C71A", "< 1e-05 s⁻¹"],
  ["A42U C50U G51U U54C", "< 1e-05 s⁻¹"],
  ["G7A G38C A64C", "< 1e-05 s⁻¹"],
  ["C8A G9U C19A G29C C34A A48C", "< 1e-05 s⁻¹"],
  ["A6G C10G U30A G32U U56G", "< 1e-05 s⁻¹"],
  ["G44U U65G C70G", "< 1e-05 s⁻¹"],
  ["C11U G13A G44U", "< 1e-05 s⁻¹"],
  ["A14C G35A", "< 1e-05 s⁻¹"],
  ["G37A U65A", "7.66e-05 s⁻¹"],
  ["C16A A36G U65G", "< 1e-05 s⁻¹"],
  ["A33C U47G A48C", "< 1e-05 s⁻¹"],
  ["A14C A15C A36U G37U U49A", "< 1e-05 s⁻¹"],
  ["A14U A15U C68U", "0.000111 s⁻¹"],
  ["C16U G43A C67A U69A", "6.4e-05 s⁻¹"],
  ["G7U G35A G37C U46G U47A C70G", "< 1e-05 s⁻¹"],
  ["G13C A48G", "< 1e-05 s⁻¹"],
  ["G9U C11G A12G A48U G51C", "< 1e-05 s⁻¹"],
  ["G13U G29A A52C", "< 1e-05 s⁻¹"],
  ["G63A A64C", "< 1e-05 s⁻¹"],
  ["A39U G51U G62U C71A", "< 1e-05 s⁻¹"],
  ["U55G C71U", "0.0044 s⁻¹"],
  ["G7U C16U U46G", "< 1e-05 s⁻¹"],
  ["A6G C71U", "3.33e-05 s⁻¹"],
  ["G44C U69G", "< 1e-05 s⁻¹"],
  ["A52G C67A", "0.000301 s⁻¹"],
  ["A6C A36G A52G", "< 1e-05 s⁻¹"],
  ["G7C U49A", "< 1e-05 s⁻¹"],
  ["A15G G41U", "0.00155 s⁻¹"],
  ["G38C C58U G66A", "< 1e-05 s⁻¹"],
  ["C16A U31A", "0.000585 s⁻¹"],
  ["A12C G32A G44C", "< 1e-05 s⁻¹"],
  ["G7U C8U G32U C50U", "< 1e-05 s⁻¹"],
  ["A15G C16U U31A A39C", "0.000142 s⁻¹"],
  ["A15U C16U U45A", "0.00158 s⁻¹"],
  ["U45C C71U", "0.00167 s⁻¹"],
  ["G32U G38U", "< 1e-05 s⁻¹"],
  ["G9A C34A G59C", "< 1e-05 s⁻¹"],
  ["C61G C71G", "4.16e-05 s⁻¹"],
  ["C16U U30A G40A", "8.29e-05 s⁻¹"],
  ["G7C", "< 1e-05 s⁻¹"],
  ["A36C G43U", "< 1e-05 s⁻¹"],
  ["C11A C34U G63C", "< 1e-05 s⁻¹"],
  ["A64U G66A", "4.95e-05 s⁻¹"],
  ["G29U G32U C50G", "6.06e-05 s⁻¹"],
  ["U30C C58U C70U", "3.95e-05 s⁻¹"],
  ["A12C U56C", "0.00111 s⁻¹"],
  ["U46C U47G", "0.0014 s⁻¹"],
  ["G29C U47G", "0.000393 s⁻¹"],
  ["U47C U54A C70U", "0.00241 s⁻¹"],
  ["A15U U55A", "0.00588 s⁻¹"],
  ["U46C C67A", "0.00062 s⁻¹"],
  ["A42C G43U C70U", "< 1e-05 s⁻¹"]
]}
